- protocol.notes: Cytotoxicity against mouse J774A1 cells incubated for 72 hrs by MTT assay
- Assay type: cell-based, J774.A1
Threshold 10 µM: CC50 at 72 h strictly smaller gives fulfilled, otherwise not fulfilled.

Some solved cases for reference:
C[C@@H]1[C@H](O)[C@@H](C)/C=C/C=C/C=C/C=C/C=C/C=C/C=C/[C@H](O[C@@H]2O[C@H](C)[C@@H](O)[C@H](N)[C@@H]2O)C[C@@H]2O[C@](O)(C[C@@H](O)C[C@@H](O)[C@H](O)CC[C@@H](O)C[C@@H](O)CC(=O)O[C@H]1C)C[C@H](O)[C@H]2C(=O)O : fulfilled
CC1(c2ccc(Cl)cc2)CC(S(=O)(=O)c2ccc(F)cc2)=C(c2ccc(/C(N)=N\O)cc2)O1 (stereo unspecified) : not fulfilled
CC1(c2ccccc2)CC(S(=O)(=O)c2ccc(F)cc2)=C(c2ccc(/C(N)=N\O)cc2)O1 (stereo unspecified) : not fulfilled
CC1(c2ccc(-c3ccccc3C#N)cc2)CC(S(=O)(=O)c2ccc(F)cc2)=C(c2ccc(/C(N)=N\O)cc2)O1 (stereo unspecified) : fulfilled
COc1ccc(C2(c3ccccc3)CC(S(=O)(=O)c3ccc(F)cc3)=C(c3ccc(/C(N)=N\O)cc3)O2)cc1 (stereo unspecified) : not fulfilled

Turning to the following compound.
Exam item: In the record for CC1(c2ccc(Br)cc2)CC(S(=O)(=O)c2ccc(F)cc2)=C(c2ccc(/C(N)=N\O)cc2)O1 (stereo unspecified) , is CC50 at 72 h less than 10 µM?
Marked response: not fulfilled

###

- Test system: Plasmodium falciparum
- protocol.notes: Antiplasmodial activity against chloroquine, pyrimethamine and proguanil-resistant Plasmodium falciparum K1 infected in human erythrocytes assessed as reduction in Parasitemia incubated for 72 hrs by SYBR Green I fluorescence-based method
- Format: functional, organism-based
- experimental.conditions: K1, 72 h
Cut-off 6 µM on IC50: below means 1, at or above means -1.

Use the examples below as a reference point.
COc1cc(-c2ccc(C3(C)CC(S(=O)(=O)c4ccc(F)cc4)=C(c4ccc(/C(N)=N\O)cc4)O3)cc2)cc(OC)c1OC (stereo not drawn) : 1
CC1(c2ccc(Cl)cc2)CC(S(=O)(=O)c2ccc(F)cc2)=C(c2ccc(/C(N)=N\O)cc2)O1 (stereo not drawn) : -1
CC1(Cc2ccccc2)CC(S(=O)(=O)c2ccc(F)cc2F)=C(c2ccc(/C(N)=N\O)cc2)O1 (stereo not drawn) : -1

Exam item: Could you please tell me whether IC50 recorded for CC1(c2ccc(-c3ccncc3)cc2)CC(S(=O)(=O)c2ccc(F)cc2)=C(c2ccc(/C(N)=N\O)cc2)O1 (stereo not drawn) is less than 6 µM?
Marked response: 1

Exam item: Bench note: check whether CC1(c2ccc(-c3ccco3)cc2)CC(S(=O)(=O)c2ccc(F)cc2)=C(c2ccc(/C(N)=N\O)cc2)O1 (stereo not drawn) shows IC50 below 6 µM
Marked response: -1

Exam item: Please determine if CC1(Cc2ccccc2)CC(S(=O)(=O)c2c(F)cccc2F)=C(c2ccc(/C(N)=N\O)cc2)O1 (stereo not drawn) is below 6 µM in terms of IC50.
Marked response: 1

Exam item: Please state whether IC50 is below 6 µM for CC1(c2ccccc2)CC(S(=O)(=O)c2ccc(F)cc2)=C(c2ccc(/C(N)=N\O)cc2)O1 (stereo not drawn)
Marked response: -1

###

Overview of reported log10 CC50 at 72 h across a group of compounds:
- protocol.notes: Cytotoxicity against human HepG2 cells incubated for 72 hrs by MTT assay
- Assay type: cell-based
Remember, log10 of CC50 at 72 h, in µM.

CC1(c2ccc(-c3ccc(/C(N)=N\O)cc3)cc2)CC(S(=O)(=O)c2ccc(F)cc2)=C(c2ccc(/C(N)=N\O)cc2)O1 (stereo unspecified) : 1.18
CCC1(c2ccccc2OC)CC(S(=O)(=O)c2ccc(F)cc2)=C(c2ccc(/C(N)=N\O)cc2)O1 (stereo unspecified) : 1.43
CC1(c2ccc(Br)cc2)CC(S(=O)(=O)c2ccc(F)cc2)=C(c2ccc(/C(N)=N\O)cc2)O1 (stereo unspecified) : 1.28
Cc1ccc(-c2ccc(C3(C)CC(S(=O)(=O)c4ccc(F)cc4)=C(c4ccc(/C(N)=N\O)cc4)O3)cc2)cc1 (stereo unspecified) : 1.14
CC1(c2ccc(-c3ccncc3)cc2)CC(S(=O)(=O)c2ccc(F)cc2)=C(c2ccc(/C(N)=N\O)cc2)O1 (stereo unspecified) : 1.48
CC1(c2ccc(Cl)cc2)CC(S(=O)(=O)c2ccc(F)cc2)=C(c2ccc(/C(N)=N\O)cc2)O1 (stereo unspecified) : 1.79

Exam item: Please look at this compound and report its log10 CC50 at 72 h: CC1(Cc2ccccc2)CC(S(=O)(=O)c2ccc(F)cc2F)=C(c2ccc(/C(N)=N\O)cc2)O1 (stereo unspecified)
Marked response: 1.96

Exam item: // Input: CC1(c2ccccc2)CC(S(=O)(=O)c2ccc(F)cc2)=C(c2ccc(/C(N)=N\O)cc2)O1 (stereo unspecified) . Output its log10 CC50 at 72 h only.
Marked response: 1.83

Exam item: Supply reported log10 CC50 at 72 h belonging to this compound: CC1(Cc2ccccc2)CC(S(=O)(=O)c2ccccc2F)=C(c2ccc(/C(N)=N\O)cc2)O1 (stereo unspecified)
Marked response: 1.79

Exam item: Item `COc1cccc2c1C(=O)c1c(O)c3c(c(O)c1C2=O)C[C@@](O)(C(=O)CO)C[C@@H]3O[C@H]1C[C@H](N)[C@H](O)[C@H](C)O1` : provide log10 CC50 at 72 h
Marked response: -1.70

Exam item: Please report the measured log10 CC50 at 72 h for CC1(Cc2ccccc2)CC(S(=O)(=O)c2cccc(C(F)(F)F)c2)=C(c2ccc(/C(N)=N\O)cc2)O1 (stereo unspecified)
Marked response: 1.52
